kon for assorted binders
target: T1, human HER2 antigen protein (human, UniProt P04626 23-652); experiment: Biacore, Her2 immobilised on CM-5 chip
T1 construct: Antigen coated in the ELISA of Embodiment 5 and immobilised on the CM-5 chip in Embodiment 7; Embodiment 7 says only 'antigen protein Her2' without species or construct; also called antigen protein Her2
Measurement name: kon

[
  {
    "Binder": "Nanobody No. 13 (VHH, camel VHH from pMECs phage display vector; also called Antibody no; 13; not shown: tags (HA, His) implied by anti-HA detection and nickel column) VHH: QVQLQESGGGSVQAGETLRLSCTASGFTFDDSDMGWYRQAPGNECELVSTISADGSTFYADSVKGRFTISQDNAKNTVYLQMNSLKPEDTAVYYCASPENEYELGTCEALDYWGQGTQVTVSS",
    "Assay result": "1.27e+06 M⁻¹ s⁻¹"
  },
  {
    "Binder": "Nanobody No. 26 (VHH, camel VHH from pMECs phage display vector; also called Antibody no; 26; not shown: tags (HA, His) implied by anti-HA detection and nickel column) VHH: QVQLQESGGGSVQAGETLRLSCTASGFTFDDSDMGWYRQAPGNECELVSSISSDGSTYYADSVKGRFTISQDNAKNTVYLQMNSLKPEDTGVYYCAAEGHRYELGTCAALDYWGRGTQVTVSS",
    "Assay result": "857000 M⁻¹ s⁻¹"
  },
  {
    "Binder": "Nanobody No. 22 (VHH, camel VHH from pMECs phage display vector; also called Antibody no; 22; not shown: tags (HA, His) implied by anti-HA detection and nickel column) VHH: QVQLQESGGGSVQAGGSLRLSCTASGFTFDDSDMGWYRQAPGNECELVSRISRDGTTYYADSVKGRFTISQDNAKNTVYLQMNSLKPEDTAVYYCADINSGYELGTCESLDYWGRGTQVTVSS",
    "Assay result": "957000 M⁻¹ s⁻¹"
  }
]

Reference for the values: patent US20230263916A1
